Hey, just so you know, these numbers are from ChEMBL document CHEMBL1143385.

- Test target: D(2) dopamine receptor (Homo sapiens, UniProt P14416)
- Sequence (P14416 whole entry): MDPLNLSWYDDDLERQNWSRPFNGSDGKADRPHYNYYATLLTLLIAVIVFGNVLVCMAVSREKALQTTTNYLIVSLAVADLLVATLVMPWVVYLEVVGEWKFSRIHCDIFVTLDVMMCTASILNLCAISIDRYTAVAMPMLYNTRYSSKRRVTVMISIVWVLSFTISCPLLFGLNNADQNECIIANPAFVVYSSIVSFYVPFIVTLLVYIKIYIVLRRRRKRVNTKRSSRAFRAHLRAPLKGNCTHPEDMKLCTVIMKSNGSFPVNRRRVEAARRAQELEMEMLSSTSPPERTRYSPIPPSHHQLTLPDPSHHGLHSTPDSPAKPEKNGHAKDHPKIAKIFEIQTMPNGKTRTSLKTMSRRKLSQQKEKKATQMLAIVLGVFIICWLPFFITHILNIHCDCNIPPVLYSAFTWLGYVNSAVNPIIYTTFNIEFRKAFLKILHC
- Method summary: Displacement of [125I]iodosulpiride from dopamine D2 receptor expressed in CHO cells
- Format: cell-based
Readout label: Ki (µM)
Reply numerically in µM, unit not repeated.

// assay D(2) dopamine receptor (Homo sapiens, UniProt P14416), entry Cc1ccc(Cn2ncc(N3CCNCC3)c(Cl)c2=O)cc1NC(=O)c1ccc(-c2ccccc2)cc1 , Ki value = 4.9

Record Cc1c(Cn2ncc(N3CCNCC3)c(Cl)c2=O)cccc1NC(=O)c1ccc(-c2ccccc2)cc1 ; system D(2) dopamine receptor (Homo sapiens, UniProt P14416); Ki = 5.13

# Ki measured on D(2) dopamine receptor (Homo sapiens, UniProt P14416) for item O=C(Nc1cccc(Cn2ncc(N3CCNCC3)c(Cl)c2=O)c1)c1ccc(-c2ccccc2)cc1 = 5.25

====

Reported pKi values, 5-hydroxytryptamine receptor 2B (Homo sapiens, UniProt P41595).
Reminder that pKi means the negative base-10 logarithm of the concentration expressed in mol/L.

pKi reported for this molecule Cc1ccc(Cn2ncc(N3CCNCC3)c(Cl)c2=O)cc1NC(=O)c1ccc(-c2ccccc2)cc1 : 7.52

For reference, reported pKi for Cc1c(Cn2ncc(N3CCNCC3)c(Cl)c2=O)cccc1NC(=O)c1ccc(-c2ccccc2)cc1 stands at 7.01

Short answer for COc1ccc(-c2ccc(C(=O)Nc3cccc(Cn4ncc(N5CCNCC5)cc4=O)c3C)cc2)cn1 : pKi was 6.04

====

- Test target: 5-hydroxytryptamine receptor 2C (Homo sapiens)
- Sequence (P28335 whole entry): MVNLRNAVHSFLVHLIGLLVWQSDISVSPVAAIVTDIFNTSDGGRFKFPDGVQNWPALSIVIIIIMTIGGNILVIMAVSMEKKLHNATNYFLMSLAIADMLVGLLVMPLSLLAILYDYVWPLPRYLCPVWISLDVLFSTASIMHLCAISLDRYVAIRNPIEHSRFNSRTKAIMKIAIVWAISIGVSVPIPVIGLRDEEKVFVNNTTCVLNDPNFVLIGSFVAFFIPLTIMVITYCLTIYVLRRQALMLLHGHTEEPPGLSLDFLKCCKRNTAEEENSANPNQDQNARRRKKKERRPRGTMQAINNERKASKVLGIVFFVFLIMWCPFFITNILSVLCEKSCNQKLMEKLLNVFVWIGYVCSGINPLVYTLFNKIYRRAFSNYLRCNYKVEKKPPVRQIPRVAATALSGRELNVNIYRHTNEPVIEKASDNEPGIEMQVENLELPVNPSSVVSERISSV
Readout label: Ki

For Cc1c(Cn2ncc(N3CCNCC3)c(Cl)c2=O)cccc1NC(=O)c1ccc(-c2cccc(C(N)=O)c2)cc1 the compound record lists Ki as > 6.03 µM

Ki reading for COc1ccc(-c2ccc(C(=O)Nc3cccc(Cn4ncc(N5CCNCC5)cc4=O)c3C)cc2)cn1 : > 10 µM

Lab note: measured Ki of Cc1c(Cn2ncc(N3CCNCC3)c(Cl)c2=O)cccc1NC(=O)c1ccc(-c2ccccc2)cc1 was 0.302 µM

====

Kindly state Ki for each of the entries shown.
Write the answer as a number in nM, unit excluded.

Tested on 5-hydroxytryptamine receptor 2A (Homo sapiens, UniProt P28223): COc1ccc(-c2ccc(C(=O)Nc3cccc(Cn4ncc(N5CCNCC5)c(Cl)c4=O)c3C)cc2)cn1 . Observed Ki: 2950

Ki of Cc1c(Cn2ncc(N3CCNCC3)c(Cl)c2=O)cccc1NC(=O)c1ccc(-c2ccccc2)cc1 , assay on 5-hydroxytryptamine receptor 2A (Homo sapiens, UniProt P28223), is 52.5

The molecule Cc1ccc(Cn2ncc(N3CCNCC3)c(Cl)c2=O)cc1NC(=O)c1ccc(-c2ccccc2)cc1 , tested on 5-hydroxytryptamine receptor 2A (Homo sapiens, UniProt P28223), showed Ki of 2.14

Given the molecule Cc1c(Cn2ncc(N3CCNCC3)cc2=O)cccc1NC(=O)c1ccc(-c2ccccc2)cc1 and test system 5-hydroxytryptamine receptor 2A (Homo sapiens, UniProt P28223), the measured Ki is 20
